meta.source: PubChem BioAssay AID1159580

assay: chemical genetic growth profiling, strain panel (AID 1159580);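 note: tested at 20 µM; growth read once vehicle control cultures reached saturation at 30 °C; 1 = growth at the plate median or of vehicle wells; lower values mean less growth of the strain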; conditions: S. cerevisiae deletion strains, growth OD, locus YOR083W, strain WHI5 (second series), hits give low values
Among all 5,500 compounds or so, about 2,000 (36%) were called active. Roughly 18% stayed inconclusive and do not appear here. The list shows a part of the results.
Reported normalized growth values for the following compounds.
Response field accepts a number only; no unit should be typed.

C[C@]12CCC(=O)C=C1CC[C@@H]1[C@@H]2[C@@H](O)C[C@@]2(C)[C@H]1CC[C@]2(O)C(=O)CO :: 1.01
Cc1nc(N=Nc2ccc(S(=O)(=O)O)cc2S(=O)(=O)O)c(COP(=O)(O)O)c(C=O)c1O :: 1.01
CC(C)[C@@H]1NC(=O)[C@H](CCCCN)NC(=O)[C@@H](Cc2c[nH]c3ccccc23)NC(=O)[C@H](Cc2ccc(O)cc2)NC(=O)[C@H](C)N(C)C(=O)[C@H](Cc2ccccc2)NC1=O :: 0.989

Enquiry: Consider the compound C#C[C@]1(O)CC[C@H]2[C@@H]3CCC4=Cc5oncc5CC4(C)[C@H]3CCC21C (stereo partly specified) . State its measured normalized growth.
Return: 0.99

Enquiry: // fetch normalized growth given entry `NC(=O)N1c2ccccc2C=Cc2ccccc21`
Return: 0.999

Enquiry: Return reported normalized growth. Input compound: CC(C)NCC(O)c1ccc(NS(C)(=O)=O)cc1 (stereo unspecified)
Return: 1

----------
experiment: chemical genetic growth profiling, strain panel (AID 1159580);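 note: tested at 20 µM; growth read once vehicle control cultures reached saturation at 30 °C; 1 = growth at the plate median or of vehicle wells; lower values mean less growth of the strain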; conditions: S. cerevisiae deletion strains, growth OD, locus YMR263W, strain SAP30
About 2,000 (36%) of roughly 5,500 compounds were called active. Another 18% or so got no clear call; they are omitted. Cut-off read from the data, not from the text of the source: active = normalized growth mostly below about 0.91 (no sharp cut-off); inconclusive = no clear call, values can overlap the other calls; inactive = mostly above about 0.92. The list shows a part of the results.
Please reply with one of these outcomes: Yes (active), No (inactive)

Examples from the recorded data:
COc1cc(/C=C/C=O)cc(OC)c1OC :: No
Cc1c(NC(=O)c2cccnc2)c(=O)n(-c2ccccc2)n1C :: No
COC(=O)[C@]1(C)CC[C@]2(C)CC[C@]3(C)C4=CC=C5C(=CC(=O)C(O)=C5C)[C@]4(C)CC[C@@]3(C)[C@@H]2C1 :: Yes
CC[C@H]1OC(=O)[C@H](C)[C@@H](O[C@H]2C[C@@](C)(OC)[C@@H](O)[C@H](C)O2)[C@H](C)[C@@H](O[C@@H]2O[C@H](C)C[C@H](N(C)C)[C@H]2O)[C@](C)(O)C[C@@H](C)[C@@H]2N[C@@H](COCCOC)O[C@H]([C@H]2C)[C@]1(C)O :: No
Cn1cc(C(F)(F)F)nc1-c1ccc(OCC(O)CNCCOc2ccc(O)c(C(N)=O)c2)cc1 (stereo not drawn) :: No

Enquiry: What outcome does the record of this test show for `CCOc1ccc(C(=O)c2cc(O)c(OC)c(OC)c2O)cc1` ?
Return: No

Enquiry: What classification did `Cc1cc(C(C)(C)C)c(O)c(C)c1CC1=NCCN1` end up with in this test?
Return: No

----------
# normalized growth listing for each entry below
experiment: chemical genetic growth profiling, strain panel (AID 1159580);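 note: tested at 20 µM; growth read once vehicle control cultures reached saturation at 30 °C; 1 = growth at the plate median or of vehicle wells; lower values mean less growth of the strain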; conditions: S. cerevisiae deletion strains, growth OD, locus YPL256C, strain CLN2, hits give low values
Screen size: about 5,500 compounds; about 2,000 (36%) were called active. Not shown: some 18% with an inconclusive outcome. The list shows a part of the results.
No unit in the answer, please; the number alone is enough.

# count of solved cases: 5
CC(=O)NS(=O)(=O)c1ccc(NC(=O)c2ccccc2C(=O)O)cc1 :: 0.975
Cc1onc(-c2ccccc2Cl)c1C(=O)N[C@@H]1C(=O)N2[C@@H]1SC(C)(C)[C@@H]2C(=O)O :: 1.01
CCC1(CC)C(=O)C=CNC1=O :: 1.01
O=C(O)[C@H](O)[C@@](O)(Cc1ccc(O)cc1)C(=O)O :: 0.993
CNC(Cc1c[nH]c2ccccc12)C(=O)O (stereo unspecified) :: 0.978

// below: normalized growth requested for another compound
Enquiry: Give me measured normalized growth, please, for this compound: `O=C(CCBr)N1CCN(C(=O)CCBr)CC1`
Return: 0.996
